Tested on: PAPD7 mRNA
TEST_DESCRIPTION: PAPD7 mRNA inhibition in HBV infected dHepaRG cells, gymnosis (Example 6, Table 17)
Type: cell-based, human
CONDITION_SUMMARY: 20 μM, day 11 post-infection, average of 3, vs PBS
l = locked nucleic acid (LNA); d = 2'-deoxy (DNA)
We use 90% as the dividing line for % mRNA inhibition Avg: on or above the line is 1 (yes), below is 0 (no).

Would you please look over these solved cases?
>>> assigned_category("184_1 (antisense CTTTTTAAGGACAGGAGG; sugars from the 5' end l4 d12 l2, backbone and methylation of C not given here)")
"0 (no)"
>>> assigned_category("168_1 (antisense AATGCTTAATTTTTCTCTCT; gapmer 2-14-4, DNA gap, modified flanks, flank chemistry and linkages not given here)")
"1 (yes)"
>>> assigned_category("174_1 (antisense CGgtaagggttcggTG; gapmer 2-12-2: flanks modified nucleosides, DNA gap, flank chemistry and linkages not given here, as printed in the source, key not given here)")
"0 (no)"
>>> assigned_category("239_1 (TGgtaaacactggGC; gapmer: modified nucleoside flanks, DNA gap, modification type not given here, as printed in the source, key not given here)")
"1 (yes)"
>>> assigned_category("221_1 (antisense ATttatcaacttcCACC; gapmer 2-11-4, flank modification and linkages not given here, as printed in the source, key not given here)")
"1 (yes)"

Evaluate 171_1 (antisense CAGCATAATTGTTTTCTTT; gapmer 3-13-3, DNA gap, modified flanks, flank chemistry and linkages not given here) : % mRNA inhibition Avg at minimum 90%?
1 (yes)

Evaluate 172_1 (antisense ATGTCATTATGTTTTAGTT; gapmer 4-13-2, DNA gap, modified flanks, flank chemistry and linkages not given here) : % mRNA inhibition Avg at minimum 90%?
1 (yes)

Evaluate 155_1 (antisense ACttagtaatagcaGCA; gapmer 2-12-3: modified flanks, DNA gap, flank chemistry and linkages not given here, as printed in the source, key not given here) : % mRNA inhibition Avg at minimum 90%?
0 (no)

* * *

Tested on: HBV
TEST_DESCRIPTION: HBsAg inhibition in HBV infected dHepaRG cells, gymnosis, single oligonucleotides and combinations (Examples 6-8, Tables 16-19)
Type: cell-based, hepatitis B virus
CONDITION_SUMMARY: PAPD5 targeting compounds, 20 μM, day 11 post-infection, average of 3
READOUT_LABEL: % HBsAg Inhibition Avg (%)
One number for each entry, in %.

# example entries with known answers
>>> recorded_measurement("18_1 (antisense GTaatacctctcacATTC; LNA gapmer modifications, as printed in the source, key not given here)")
"−5.3"
>>> recorded_measurement("65_1 (antisense TTCAcaacaggtaaagGG; gapmer, wing-gap-wing design given, wing and linkage as printed in the source, key not given here, as printed in the source, key not given here)")
"−36.8"
>>> recorded_measurement("118_1 (antisense GTAcaaggacaaagtaACC; gapmer with 3-13-3 design, flank chemistry and linkages not given here, as printed in the source, key not given here)")
"−24.2"
>>> recorded_measurement("32_1 (TTTGGTAATTCTTTTTTTAG; gapmer 3-14-3 design, key for capital and lowercase letters not given here)")
0.8
>>> recorded_measurement("54_1 (antisense TTCAacctttactgcAT; modified antisense gapmer, as printed in the source, key not given here)")
5.2
>>> recorded_measurement("15_1 (antisense AATagcaagtagaggaGAG; as printed in the source, key not given here)")
"−9.7"

Given the substance 23_1 (AGgcttccattttattGAA; as printed in the source, key not given here) , write its reported % HBsAg Inhibition Avg.
45.8
